- Test system: NCI-H292 lung cancer cells
- Procedure summary: FDA drug screening, complete media vs cholesterol-free media without statin (TABLE 1)
- Type: cell-based, human
- Assay context: NCI-H292 cells, FDA drug library screen, complete media
Where a name gives a salt, the structure may show the parent alone.
# Complete >= 1 gives 1, anything below gives -1

* CCOC(=O)c1c(N)sc2c1CCN(Cc1ccccc1)C2 [Tinoridine hydrochloride] | 1
* C[N+](C)(C)CCOP(=O)([O-])OC[C@H](O)CO [sn-Glycero-3-phosphocholine] | -1
* CCOC(=O)C1=C[C@]2(CC)CCCN3CCc4c(n1c1ccccc41)[C@@H]32 [Vinpocetine] | -1
* C[C@H](CCC(=O)NCCS(=O)(=O)O)[C@H]1CC[C@H]2[C@@H]3[C@H](O)C[C@@H]4C[C@H](O)CC[C@]4(C)[C@H]3CC[C@]12C [Taurochenodeoxycholic acid] | -1
* O=c1cc[nH]c(=O)[nH]1 [Uracil] | -1
* NC(=O)C(c1ccccc1)(c1ccccc1)[C@@H]1CCN(CCc2ccc3c(c2)CCO3)C1 [Darifenacin (hydrobromide)] | 1

====

- System: NCI-H292 lung cancer cells
- Procedure summary: FDA drug screening, complete media vs cholesterol-free media without statin (TABLE 1)
- Assay type: cell-based, human
- Assay context: NCI-H292 cells, complete media, FDA drug library screen
Where a name gives a salt, the structure may show the parent alone.
Quantity name: Complete

- Cc1ccc(C(=O)c2ccc(CC(=O)O)n2C)cc1 [Tolmetin (sodium dihydrate)]: 1.262
- CCCN(CCC)S(=O)(=O)c1ccc(C(=O)O)cc1: 0.9089
- Cl.NCCC[C@](N)(C(=O)O)C(F)F [L-Eflornithine (monohydrochloride)]: 0.8469
- COc1nc2ccc(Br)cc2cc1[C@@H](c1ccccc1)[C@@](O)(CCN(C)C)c1cccc2ccccc12: 1.472
- CCCc1c2oc(C(=O)O)cc(=O)c2cc2c(=O)cc(C(=O)O)n(CC)c12: 1.893
- O=C(O)c1cccnc1Nc1cccc(C(F)(F)F)c1: 1.486
- COc1cc(C=O)ccc1O: 0.863
- O=C1OC(OC(=O)c2cccnc2Nc2cccc(C(F)(F)F)c2)c2ccccc21 (centres unmarked) [Talniflumate]: 1.267
- CC1(C)O[C@@H]2C[C@H]3[C@@H]4C[C@H](F)C5=CC(=O)C=C[C@]5(C)[C@H]4[C@@H](O)C[C@]3(C)[C@]2(C(=O)CO)O1 [Flunisolide]: 0.7935
- C[N+]1(C)CCC(OC(=O)C(O)(c2ccccc2)C2CCCC2)C1 (centres unmarked) [Glycopyrrolate]: 0.8296
- CCOc1ccccc1OC(c1ccccc1)C1CNCCO1.CS(=O)(=O)O (centres unmarked) [Reboxetine (mesylate)]: 1.321
- CC(C)C[C@H](NC(=O)CNC(=O)c1cc(Cl)ccc1Cl)B(O)O: −0.01336
- C=CC(=O)Nc1cccc(Oc2nc(Nc3ccc(N4CCN(C)CC4)cc3)nc3ccsc23)c1: 0.798
- CCOC(=O)[C@H](CCc1ccccc1)N[C@@H](C)C(=O)N1C(=O)N(C)C[C@H]1C(=O)O [Imidapril (hydrochloride)]: 1.458
- CC(=O)OC[C@H]1O[C@@H]([S-])[C@H](OC(C)=O)[C@@H](OC(C)=O)[C@@H]1OC(C)=O.CCP(CC)CC.[Au+]: 0.0049
- CC(C)OC(=O)C(C)(C)Oc1ccc(C(=O)c2ccc(Cl)cc2)cc1 [Fenofibrate]: 0.7932
- CCN(CC)C(=O)/C(C#N)=C/c1cc(O)c(O)c([N+](=O)[O-])c1: 0.9193
